assayed system: T1, Flt-1 antigen (species not stated) (Homo sapiens (Human), UniProt P17948 27-656)
T1 construct: also called sFlt-1; soluble Flt-1
T1 sequence (P17948 other isoform, or with tags, fused parts or gaps limits assumed, form in doubt): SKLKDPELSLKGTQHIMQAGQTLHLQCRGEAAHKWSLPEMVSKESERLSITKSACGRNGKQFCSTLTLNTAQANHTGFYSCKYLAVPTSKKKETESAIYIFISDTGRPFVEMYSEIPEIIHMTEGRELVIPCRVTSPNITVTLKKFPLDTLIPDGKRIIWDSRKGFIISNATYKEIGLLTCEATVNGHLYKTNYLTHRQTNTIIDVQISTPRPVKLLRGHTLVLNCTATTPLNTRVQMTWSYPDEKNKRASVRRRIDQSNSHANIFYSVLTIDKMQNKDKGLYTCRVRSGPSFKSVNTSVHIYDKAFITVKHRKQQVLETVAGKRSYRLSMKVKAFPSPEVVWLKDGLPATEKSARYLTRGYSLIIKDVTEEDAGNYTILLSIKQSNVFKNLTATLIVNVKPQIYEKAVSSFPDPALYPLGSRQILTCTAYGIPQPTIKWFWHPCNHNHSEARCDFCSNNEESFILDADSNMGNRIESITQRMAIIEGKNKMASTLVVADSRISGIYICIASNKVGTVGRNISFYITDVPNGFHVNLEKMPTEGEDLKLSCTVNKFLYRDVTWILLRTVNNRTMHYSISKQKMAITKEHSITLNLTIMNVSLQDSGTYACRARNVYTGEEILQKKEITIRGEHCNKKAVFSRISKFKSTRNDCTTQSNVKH
test details: Biacore
parameter measured: Kd (nM)
State the answer as a number, implicitly in nM.

Guide cases for Kd, answers given:
27H4 (antibody, human IgG1, lambda, V domains shown, also called 27H4 WT; antibody 27H4) VH: ELQLVESGGGLVQPGGSLRLSCAASGFTFRDYSMSWVRQAPGKGLEWVSAISWNGDSTYYAESLKGRFTISRDNAKNTLYLQMNSLRAEDTAVYYCAKSWATPIESLYYYGSDYWGQGTLVTVSS VL: SYELTQPLSVSVALGQTARITCGGNNIGSQTAQWYQQKPGQAPVLVIYANNRRPSGIPERFSGSKSGNTATLTISRAQAEDEADYYCQVWEDSTQAIVFGGGTKLTVLG    0.25
21B3 (antibody, V domains shown, also called 21B3 WT; antibody 21B3) VH: ELQLVESGGGLVQPGGSLRLSCAASGFTFRDYSMSWVRQAPGKGLEWVSAISWNGDSTYYAESMKGRFTISRDNAKNTLYLQMNSLKSEDTAVYYCAKSWATPIESLYYYGMDYWGKGTLVTVSS VL: SYELTQSPSVSVALRQTAKITCGGNNIGSQTAQWYQQKPGQAPVLVIYANNRRPSGIPERFSGSKSGNTATLTISGAQAEDEADYYCQVWDGSTQAIVFGGGTHLTVL    0.32
27H6 (antibody, human IgG1, lambda, V domains shown, also called 27H6 WT; antibody 27H6) VH: ELQLVESGGGLVQPGGSLRLSCAASGFTFSDYSASWVRQAPGKGLEWVSAISWSGDSTYYAESVKGRFTIFRDNSKNTLYLQMNSLRAEDTAVYYCAKSWATPIESLYYYGSDYWGQGTLVTVSS VL: SYELTQPLSVSVALRQAAKITCGGNNIGSQTAQWYQQKPGQAPVLVIYANNRRPSGIPERFSGSKSGNTATLTISRAQAGDEADYYCQVWDGSTQAIVFGGGTKLTVLG    0.16

Inquiry: For the binder 27H9 (antibody, human IgG1, lambda, V domains shown, also called 27H9 WT; 27H9 WT 23/07) VH: EVQLLESGGGLVQPGGSLRLSCAASGFTFRDYSMSWVRQAPGKGLEWVSAISWNGDSTYYAESAKGRFTISRDNSKNTLYLQMNSLRAEDTAVYYCAKSWATPIESLYYYGSDYWGQGTLVTVSS VL: SYELTQPLSVSVALRQTARITCGGNNIGSQTAQWYQQKPGQAPVLVIYANNRRPSGIPERFSGSKSGNTATLTISRAQAEDEADYYCQVWDESTQAIVFGGGTKLTVLG , give its reported Kd.
Reply text: 0.26
